Cited source for all entries: PubChem BioAssay (NCI)

# Assay Overview: NCI Yeast Anticancer Drug Screen. Data for the rad50 strain (AID 155);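 also: 0% = growth of vehicle-only cultures of the same strain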
# Condition Notes: S. cerevisiae rad50 strain growth inhibition; at 50.0 µM (retest, dose inferred, filed as 5.0)
This is part of a sample that, as a whole, favours compounds with a hit. Of some 79,000 tested, about 15% had one in any assay. The source made the active and inactive calls. Rule as the data show it: active = growth inhibition above about 70%; inactive = the rest.
API: response.call in active, inactive

Request: // param item: CN(C)CCNc1ccc2nnn3c4ccc(O)cc4c(=O)c1c23 ; yields the recorded call
Response: inactive

Request: // param item: N=c1scc(-c2ccccc2)n1/N=C/c1cccnc1 ; yields the recorded call
Response: active

Request: // param item: C=C1C(=O)[C@]23C[C@H]1CC[C@H]2[C@@]12CO[C@@H](O)[C@@H]1C(C)(C)[C@@H](O)C[C@@H]2OC3=O ; yields the recorded call
Response: inactive

Request: // param item: ClCc1ccc2oc3ccccc3c2c1 ; yields the recorded call
Response: inactive

Request: // param item: O=C1OC(C2OC(=O)C(=O)C2C(=O)c2ccc(Cl)c(Cl)c2)C(C(=O)c2ccc(Cl)c(Cl)c2)C1=O (stereo unspecified) ; yields the recorded call
Response: active

Request: // param item: CCCC/C=C\CCCCCCCCCC1=C(O)C(=O)C=C(OC)C1=O ; yields the recorded call
Response: active

Request: // param item: O=C(O)CCCCCCCCCC[S+](CCO)CCO ; yields the recorded call
Response: inactive

Request: // param item: COc1ccc2c(C#N)cc3c(c[n+](C)c4ccccc34)c2c1 ; yields the recorded call
Response: active

Request: // param item: CC(C)OCc1cccc2ccnc(COC(C)C)c12 ; yields the recorded call
Response: inactive

Request: // param item: O=c1[nH]c(CN2CCCCC2)nn1-c1ccccc1 ; yields the recorded call
Response: inactive

Request: // param item: CCOC(=O)C1SC(=Nc2ccc(Cl)cc2C)N=C1C (stereo unspecified) ; yields the recorded call
Response: active

* * *

For each record, write down the corresponding growth inhibition.
# Assay Overview: NCI Yeast Anticancer Drug Screen. Data for the bub3 strain (AID 167)
# Condition Notes: S. cerevisiae bub3 mutant strain, at 50.0 µM (retest, dose inferred, filed as 5.0), stronger effect = higher value
The panel holds about 79,000 compounds, 15% with a hit somewhere; the sample as a whole holds those more often.
// units = %; emit number, no label

Request: Quote growth inhibition reported for CCCCCCCCCCCCNC(=O)C[n+]1cccc(C(N)=O)c1 please.
Response: 76

Request: Quote growth inhibition reported for CC(C)NC(=O)OCc1c2c(n(C)c1COC(=O)NC(C)C)-c1ccccc1CC2 please.
Response: 98

Request: Quote growth inhibition reported for CC1(C)CC(N(C(=O)/C=C/c2ccc([N+](=O)[O-])o2)C2CCCCC2)CC(C)(C)N1 please.
Response: 99

Request: Quote growth inhibition reported for O=C1C(N2CCOCC2)=C(Cl)C(=O)c2ncccc21 please.
Response: 97

Request: Quote growth inhibition reported for CC(=O)Oc1c2c(c(OC(C)=O)c3c1n(C(C)=O)c1ccccc1n3C(C)=O)n(C(C)=O)c1ccccc1n2C(C)=O please.
Response: 44

Request: Quote growth inhibition reported for CC(C)C(=O)c1ccc([N+](=O)[O-])o1 please.
Response: 97

Request: Quote growth inhibition reported for Oc1c(Cl)ccc2cccnc12 please.
Response: 99

Request: Quote growth inhibition reported for [N-]=[N+]=Nc1c(C=O)c(=O)n(-c2ccccc2)c2ccccc12 please.
Response: 26

Request: Quote growth inhibition reported for CCCCCCCCCc1ccc(O)c(Cl)c1 please.
Response: 86

Request: Quote growth inhibition reported for Cc1ccc(N2C(=O)C(Cl)=C(Cl)C2=O)cc1 please.
Response: 99

Request: Quote growth inhibition reported for c1ccc(-c2cc(-c3cc(-c4ccccn4)[nH]n3)n[nH]2)nc1 please.
Response: 7

* * *

For each record, write down the corresponding growth inhibition.
# Assay Overview: NCI Yeast Anticancer Drug Screen. Data for the sgs1 mgt1 strain (AID 161);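 also: 0% = growth of cultures given vehicle only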
# Condition Notes: S. cerevisiae sgs1 mgt1 strain, at 5.0 µM (retest, dose inferred, filed as 0.5), stronger effect = higher value
This is part of a sample that, as a whole, favours compounds with a hit. Of some 79,000 tested, about 15% had one in any assay. Calls of active or inactive are those of the source. Cut-off read from the data, not from the text of the source: active = growth inhibition above about 70%; inactive = the rest.

Request: Quote growth inhibition reported for OC(CCN1CCOCC1)C1c2ccccc2Cc2ccccc21 (stereo unspecified) please.
Response: 1% (inactive)

Request: Quote growth inhibition reported for O=C(O)/C=C/c1ccc(Cl)c(Cl)c1 please.
Response: 11% (inactive)

Request: Quote growth inhibition reported for Cc1nc(N)sc1N=Nc1ccccc1Br please.
Response: 0% (inactive)

Request: Quote growth inhibition reported for CC1=C(C(=O)Nc2cccc(C(F)(F)F)c2)C(c2ccccc2F)C(C(=O)Nc2cccc(C(F)(F)F)c2)=C(C)N1 please.
Response: 29% (inactive)

Request: Quote growth inhibition reported for Cc1cc(C)c(O)c(Cc2cc(Cl)cc(Cc3cc(C)cc(C)c3O)c2O)c1 please.
Response: 13% (inactive)

Request: Quote growth inhibition reported for CN(C)CCC[Si]1(C)c2ccccc2CCc2ccccc21 please.
Response: -5% (inactive)

* * *

For each record, write down the corresponding growth inhibition.
# Assay Overview: NCI Yeast Anticancer Drug Screen. Data for the rad50 strain (AID 155);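 also: 0% = growth of vehicle-only cultures of the same strain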
# Condition Notes: S. cerevisiae rad50 strain growth inhibition; at 50.0 µM; stronger effect = higher value
This is part of a sample that, as a whole, favours compounds with a hit. Of some 79,000 tested, about 15% had one in any assay.
// units = %; emit number, no label

Request: Quote growth inhibition reported for CCCCOc1ccc(CN2CCOC2=O)cc1 please.
Response: 38.6

Request: Quote growth inhibition reported for CCc1ccc(CC(=O)O)c2ccc3c(C)ccc(C)c3c12 please.
Response: 98.9

Request: Quote growth inhibition reported for Cc1ccc(N=Nc2c(C)c(C#N)c(=S)n(C3OC(CO)C(O)C(O)C3O)c2-c2ccccc2)cc1 (stereo unspecified) please.
Response: 35

Request: Quote growth inhibition reported for Cc1ccc(S(=O)(=O)N/N=C2/CCC3(O)CC2(C)CCC2[C@H]3CC2(C)C)cc1 (stereo partly specified) please.
Response: 66.7

Request: Quote growth inhibition reported for CC(NCCO)c1ccc2ccccc2c1 (stereo unspecified) please.
Response: 2.15

Request: Quote growth inhibition reported for Nc1ccccc1CC(c1c[nH]c2ccccc12)c1c[nH]c2ccccc12 please.
Response: 94

Request: Quote growth inhibition reported for CN1C(=O)C(C2C(=O)N(C)C(=O)N(C)C2=O)C(=O)N(C)C1=O please.
Response: 2.95

Request: Quote growth inhibition reported for Cc1ccc(Nc2nc3c(s2)C(=O)c2ccccc2C3=O)c(C)c1 please.
Response: 98.7

Request: Quote growth inhibition reported for Nc1ccc(O)c(=O)cc1 please.
Response: 50.2

Request: Quote growth inhibition reported for CCCCCCCCCCCCSC1=C(N)C(=O)c2ccccc2C1=O please.
Response: 8.35

Request: Quote growth inhibition reported for COc1ccc(C(=O)O)c(-c2c(C(=O)O)ccc(OC)c2OC(C)=O)c1 please.
Response: 16.5

Request: Quote growth inhibition reported for COc1ccc(C(c2ccc(OC)cc2)c2ccccc2C(=O)O)cc1 please.
Response: 37.8

Request: Quote growth inhibition reported for O=C(CCc1c[nH]c2ccccc12)c1ccccc1O please.
Response: 17.5

Request: Quote growth inhibition reported for Fc1cccc(CSc2ncnc3c2ncn3C2CCCS2)c1 (stereo unspecified) please.
Response: 84.9

Request: Quote growth inhibition reported for CC(C)c1ccc(O)c(O)c(=O)c1 (tested in a mixture with another compound) please.
Response: 99.5

Request: Quote growth inhibition reported for COc1ccc(/C=C/C(=N/NC(=O)c2ccccc2)C(C)CN(C)C)cc1 (stereo unspecified) please.
Response: 6.15

Request: Quote growth inhibition reported for CC(O)C1CCCC[N+]1(C)C (stereo unspecified) please.
Response: 0.05

Request: Quote growth inhibition reported for CN(C(=O)c1ccccc1)C1(COC(=O)c2ccccc2)CCCCC1 please.
Response: 16.1

Request: Quote growth inhibition reported for CCc1c(-c2ccccc2)c(CN2CCCCC2)c2ccccn12 please.
Response: -1.4

Request: Quote growth inhibition reported for O=C1CC2(CCN(CC3COc4ccccc4O3)CC2)C(=O)N1N1CCCCCC1 (stereo unspecified) please.
Response: 77

Request: Quote growth inhibition reported for CC1C/C(=N\N(C)C)C(C#N)(C#N)C1(C#N)C#N (stereo unspecified) please.
Response: 81

Request: Quote growth inhibition reported for COc1cc(N=Nc2ccccc2)cc(/C=N/NC(N)=S)c1O please.
Response: 73.8

Request: Quote growth inhibition reported for COc1ccc2c(c1)[n+]([O-])c(S(=O)(=O)c1ccc(C)cc1)c(N)[n+]2[O-] please.
Response: 99.2

Request: Quote growth inhibition reported for CN(Cc1cc(Cl)cc(Cl)c1O)Cc1c(O)ccc2ccccc12 please.
Response: 98.5

Request: Quote growth inhibition reported for C#CCOC(=O)Nc1nc2ccc(SC#N)cc2s1 please.
Response: 97.8

Request: Quote growth inhibition reported for CC(C)C1=C2CCC3(C)C(CCC4C5C6OCC5(CCC6(C)C)CCC43C)C2(C)CC1 (stereo unspecified) please.
Response: 72.5

Request: Quote growth inhibition reported for O/N=C1/CC2CCCc3ccc4cccc1c4c32 (stereo unspecified) please.
Response: 60.2

Request: Quote growth inhibition reported for O=C(SCCCc1ccccc1)c1cc([N+](=O)[O-])cc([N+](=O)[O-])c1 please.
Response: 75.7

Request: Quote growth inhibition reported for Oc1ccc(C2(c3ccc(O)c(Cl)c3)CC3CCC2C3)cc1Cl (stereo unspecified) please.
Response: 98

Request: Quote growth inhibition reported for O=C(c1ccccc1)c1cn(/N=C\c2ccccc2)c(=O)nc1-c1ccccc1 please.
Response: 88.5

Request: Quote growth inhibition reported for N#CC1=CN(Cc2ccccc2)C(C#Cc2ccccc2)C=C1 (stereo unspecified) please.
Response: 58.9

Request: Quote growth inhibition reported for CCOC(=O)c1cc(C)ccc1-c1ccc(C)cc1C(=O)OCC please.
Response: 57.6

Request: Quote growth inhibition reported for CC1=C(C)CC2C(=O)C(C(O)CC(C)C)=CC(=O)C2C1 (stereo unspecified) please.
Response: 97.8

Request: Quote growth inhibition reported for COC(=O)C1=C(/C=C/C(C)=O)NC(C)=C(C(=O)OC(C)C)C1c1ccccc1Cl (stereo unspecified) please.
Response: 49.3

Request: Quote growth inhibition reported for COC(=O)C(=O)C(C(=O)c1ccc(F)cc1)c1nc2n(c1O)C(=N)N=N2 (stereo unspecified) please.
Response: 39.6

Request: Quote growth inhibition reported for CCCC(=O)Oc1ccc(OCc2ccccc2)cc1 please.
Response: -23.8

Request: Quote growth inhibition reported for COC1=C(/C(=N/Nc2ccc([N+](=O)[O-])cc2[N+](=O)[O-])c2ccccc2)COC1=O please.
Response: 17.1

Request: Quote growth inhibition reported for Cc1ccnc(NCCN(C)C)c1 please.
Response: 98.5

Request: Quote growth inhibition reported for CCN(CC)c1cc(Nc2c3ccc(Cl)cc3nc3cc(Cl)ccc23)ccc1O please.
Response: 34.5

Request: Quote growth inhibition reported for COc1ccc2nc3cc(Cl)ccc3c(Nc3ccc(S(N)(=O)=O)cc3)c2c1 please.
Response: 37.5

Request: Quote growth inhibition reported for N#CC1=C(N)OC(c2ccccc2)=C(C#N)C1c1ccccc1[N+](=O)[O-] (stereo unspecified) please.
Response: -8.2

Request: Quote growth inhibition reported for Oc1ccc[nH]c1=S please.
Response: 18.4

Request: Quote growth inhibition reported for O=C(Cn1nnc2ccccc21)N1CCN(c2ccccc2)CC1 please.
Response: 32.8

Request: Quote growth inhibition reported for CCOC(=O)c1c(Br)c(-c2ccc(Br)cc2)c(Br)n1C please.
Response: 7.95

Request: Quote growth inhibition reported for O=C1CC(c2ccccc2)c2c(ccc3ccccc23)O1 (stereo unspecified) please.
Response: 87

Request: Quote growth inhibition reported for CC[N+]1(C)CCC(O)(c2ccc(Cl)c(Cl)c2)C(C(=O)c2ccc(Cl)c(Cl)c2)C1 (stereo unspecified) please.
Response: 99.4
